# Species: Rattus norvegicus
# procedureSummary: Displacement of [3H]flunitrazepam from GABAA receptor in rat cortical membrane assessed as [3H]flunitrazepam binding at 100 uM after 90 mins by scintillation counting
# Type: cell membranes
endpointLabel: Activity (%)

# compoundStructureString, endpointLabel, measured
data = [
    ("CN1C(=O)[C@H]2C[C@@]3(CN2C(=O)c2cc([N+](=O)[O-])ccc21)O[C@H](COCc1ccccc1)[C@@H](OCc1ccccc1)[C@@H]3OCc1ccccc1", "Activity", 74.9),
    ("O=C1Nc2ccccc2C(=O)N2C[C@]3(C[C@H]12)O[C@H](CO)[C@@H](O)[C@@H]3O", "Activity", 78.2),
    ("CN1C(=O)[C@H]2CCCN2C(=O)c2cc([N+](=O)[O-])ccc21", "Activity", 80.2),
    ("O=C1Nc2ccc([N+](=O)[O-])cc2C(=O)N2C[C@@]3(C[C@@H]12)O[C@@H](COCc1ccccc1)[C@H](OCc1ccccc1)[C@H]3OCc1ccccc1", "Activity", 69.6),
    ("O=C1Nc2ccccc2C(=O)N2C[C@@]3(C[C@@H]12)O[C@@H](COCc1ccccc1)[C@H](OCc1ccccc1)[C@H]3OCc1ccccc1", "Activity", 96.3),
    ("O=C1Nc2ccccc2C(=O)N2CCC[C@H]12", "Activity", 97),
    ("CN1C(=O)[C@H]2C[C@@]3(CN2C(=O)c2cc(Br)ccc21)O[C@H](CO)[C@@H](O)[C@@H]3O", "Activity", 84.2),
    ("CN1C(=O)[C@@H]2C[C@]3(CN2C(=O)c2cc(N)ccc21)O[C@@H](CO)[C@H](O)[C@H]3O", "Activity", 83.5),
    ("Nc1ccc2c(c1)C(=O)N1C[C@@]3(C[C@H]1C(=O)N2)O[C@@H](CO)[C@H](O)[C@H]3O", "Activity", 73.9),
    ("CN1C(=O)[C@@H]2C[C@]3(CN2C(=O)c2cc(Cl)ccc21)O[C@@H](COCc1ccccc1)[C@H](OCc1ccccc1)[C@H]3OCc1ccccc1", "Activity", 82.3),
    ("CN1C(=O)[C@H]2C[C@@]3(CN2C(=O)c2ccccc21)O[C@H](CO)[C@@H](O)[C@@H]3O", "Activity", 93),
    ("CN1C(=O)[C@@H]2CCCN2C(=O)c2cc([N+](=O)[O-])ccc21", "Activity", 63.4),
    ("CN1C(=O)[C@@H]2C[C@]3(CN2C(=O)c2ccccc21)O[C@@H](CO)[C@H](O)[C@H]3O", "Activity", 112),
    ("Nc1ccc2c(c1)C(=O)N1C[C@]3(C[C@@H]1C(=O)N2)O[C@H](CO)[C@@H](O)[C@@H]3O", "Activity", 80.2),
    ("CN1C(=O)[C@@H]2C[C@]3(CN2C(=O)c2cc(Br)ccc21)O[C@@H](CO)[C@H](O)[C@H]3O", "Activity", 82.2),
    ("O=C1Nc2ccc([N+](=O)[O-])cc2C(=O)N2C[C@]3(C[C@H]12)O[C@H](COCc1ccccc1)[C@@H](OCc1ccccc1)[C@@H]3OCc1ccccc1", "Activity", 101),
    ("O=C1Nc2ccccc2C(=O)N2CCC[C@@H]12", "Activity", 95.5),
    ("CN1C(=O)[C@@H]2C[C@]3(CN2C(=O)c2cc(Br)ccc21)O[C@@H](COCc1ccccc1)[C@H](OCc1ccccc1)[C@H]3OCc1ccccc1", "Activity", 93.2),
    ("O=C1Nc2ccccc2C(=O)N2C[C@]3(C[C@H]12)O[C@H](COCc1ccccc1)[C@@H](OCc1ccccc1)[C@@H]3OCc1ccccc1", "Activity", 112),
    ("CN1C(=O)[C@@H]2C[C@]3(CN2C(=O)c2ccccc21)O[C@@H](COCc1ccccc1)[C@H](OCc1ccccc1)[C@H]3OCc1ccccc1", "Activity", 106),
    ("O=C1Nc2ccccc2C(=O)N2C[C@@]3(C[C@@H]12)O[C@@H](CO)[C@H](O)[C@H]3O", "Activity", 110),
    ("CN1C(=O)[C@H]2C[C@@]3(CN2C(=O)c2cc(Br)ccc21)O[C@H](COCc1ccccc1)[C@@H](OCc1ccccc1)[C@@H]3OCc1ccccc1", "Activity", 111),
    ("CN1C(=O)[C@H]2C[C@@]3(CN2C(=O)c2ccccc21)O[C@H](COCc1ccccc1)[C@@H](OCc1ccccc1)[C@@H]3OCc1ccccc1", "Activity", 96.4),
    ("CN1C(=O)[C@@H]2C[C@]3(CN2C(=O)c2cc(Cl)ccc21)O[C@@H](CO)[C@H](O)[C@H]3O", "Activity", 77),
    ("CN1C(=O)[C@H]2C[C@@]3(CN2C(=O)c2cc(Cl)ccc21)O[C@H](COCc1ccccc1)[C@@H](OCc1ccccc1)[C@@H]3OCc1ccccc1", "Activity", 92.9),
    ("CN1C(=O)[C@H]2C[C@@]3(CN2C(=O)c2cc(Cl)ccc21)O[C@H](CO)[C@@H](O)[C@@H]3O", "Activity", 73.7),
    ("CN1C(=O)[C@H]2C[C@@]3(CN2C(=O)c2cc(N)ccc21)O[C@H](CO)[C@@H](O)[C@@H]3O", "Activity", 70.6),
    ("CN1C(=O)[C@@H]2C[C@]3(CN2C(=O)c2cc([N+](=O)[O-])ccc21)O[C@@H](COCc1ccccc1)[C@H](OCc1ccccc1)[C@H]3OCc1ccccc1", "Activity", 82.8),
]
